method summary: Cell viability assay (CellTiter-Glo) in Jurkat cells
Format: cell-based
assay context: human, Jurkat cells, concentration 10000 nmol/L; individual replicates; Supplementary Fig. 7g; read-out: Cell viability (%) relative to DMSO
endpoint label: viability at 72 h, 10000 nmol/L (%)
Note: unit % is implicit; provide only the numeric part.

Some compounds with recorded viability at 72 h, 10000 nmol/L:
[
  {
    "compound": "Cc1sc2c(c1C)C(c1ccc(Cl)cc1)=N[C@@H](CC(=O)OC(C)(C)C)c1nnc(C)n1-2 [JQ1, reference compound]",
    "endpoint label": "viability at 72 h, 10000 nmol/L",
    "scale unit": "%",
    "value": 46.5
  },
  {
    "compound": "Cc1sc2c(c1C)C(c1ccc(Cl)cc1)=NC(CC(=O)NCCOCCOCCOCCOCCNC(=O)COc1c(Br)cc(CC3C(=O)Nc4ccc(Br)cc43)cc1Br)c1nnc(C)n1-2 (stereo not drawn)",
    "endpoint label": "viability at 72 h, 10000 nmol/L",
    "scale unit": "%",
    "value": 8.63
  }
]

Now examine the next entry.
// viability at 72 h, 10000 nmol/L value for Cc1sc2c(c1C)C(c1ccc(Cl)cc1)=NC(CC(=O)NCCOCCOCCOCCOc1c(Br)cc(CC3C(=O)Nc4ccc(Br)cc43)cc1Br)c1nnc(C)n1-2 (stereo not drawn) : 38.2

----------
method summary: Cell viability assay (CellTiter-Glo) in Jurkat cells
Assay type: cell-based
assay context: human, Jurkat cells; 72 h; 1000 nM; Fig. 4k; read-out: Relative cell viability (%)
Field: label. Allowed values: 1.0 (viability at 72 h, 1 µM < 50%) or 0.0 (viability at 72 h, 1 µM >= 50%).

// known answers, use as guide
[
  {
    "compound": "Cc1sc2c(c1C)C(c1ccc(Cl)cc1)=NC(CC(=O)NCCOCCOCCOCCOc1c(Br)cc(CC3C(=O)Nc4ccc(Br)cc43)cc1Br)c1nnc(C)n1-2 (stereo not drawn) [Compound 17]",
    "category": 0.0
  },
  {
    "compound": "Cc1sc2c(c1C)C(c1ccc(Cl)cc1)=NC(CC(=O)NCCOCCOCCOCCOc1c(Br)cc(C=C3C(=O)Nc4ccc(Br)cc43)cc1Br)c1nnc(C)n1-2 (stereo not drawn) [Compound 10]",
    "category": 1.0
  },
  {
    "compound": "COCCCN(C(=O)CCl)C(C(=O)NCc1ccccc1)c1ccc(Cl)c(Cl)c1 (stereo not drawn) [Compound 15, reference compound]",
    "category": 0.0
  },
  {
    "compound": "O=C1Nc2ccc(Br)cc2C1=Cc1cc(Br)c(O)c(Br)c1 [Compound 2]",
    "category": 0.0
  }
]

Proceed to the following item.
[Q] Strictly below 50% in viability at 72 h, 1 µM? Cc1sc2c(c1C)C(c1ccc(Cl)cc1)=N[C@@H](CC(=O)OC(C)(C)C)c1nnc(C)n1-2 [JQ1, reference compound]
[A] 1.0

----------
method summary: Cell viability assay (CellTiter-Glo) in Jurkat cells
Format: cell-based
assay context: human, Jurkat cells; 72 h; 10000 nM; Fig. 4k; read-out: Relative cell viability (%)
Below, each entry is listed alongside its reported viability at 72 h, 10 µM.

[
  {
    "compound": "O=C1Nc2ccc(Br)cc2C1=Cc1cc(Br)c(O)c(Br)c1",
    "value": "80.3%"
  }
]

Now examine the next entry.
// viability at 72 h, 10 µM value for Cc1sc2c(c1C)C(c1ccc(Cl)cc1)=N[C@@H](CC(=O)OC(C)(C)C)c1nnc(C)n1-2 [JQ1, reference compound] : 4.59%
